Target: Aldehyde dehydrogenase 1A1 (Homo sapiens) (UniProt P00352)
Assay: qHTS for Inhibitors of the Aldehyde Dehydrogenase Family (ALDH1A1) Confirmatory screens (AID 2061316); also: nearly all actives have a fitted effect of over 65% in size
Conditions: ALDH inhibition qHTS; series mostly up to 47.3 µM
Results filed as inconclusive are left out. The source made the active and inactive calls. Calls follow the shape of the dose curve; as a rule, active = well fitted inhibition curve with a large enough effect; inconclusive = small, poorly fitted or top-dose-only effect; inactive = no such curve, though single readings can be large or run the other way.
Bench note: report the call from active, inactive

Worked cases, answers included:
>>> class("O=S1(=O)N=C(Oc2ccccc2)c2ccccc21")
"inactive"
>>> class("COc1ccc([N+](=O)[O-])c(S(=O)(=O)c2ccc(Cl)cc2)n1")
"active"
>>> class("Cn1cc(-c2ccncc2)c(-c2ccc(OCc3ccc4ccccc4n3)cc2)n1")
"inactive"
>>> class("O=NN(CCCl)C(=O)NCCCl")
"active"
>>> class("COc1cccc(Cc2nc3ccccc3nc2SCC(=O)N2CCN(c3ccccc3)CC2)c1")
"inactive"

*Q* Given O=C(/C=C/c1ccc(O)cc1)c1ccc(O)cc1O , state the outcome it received in this test.
*A* active

*Q* Given N[C@H]1Cc2ccccc2N(O)C1=O , state the outcome it received in this test.
*A* inactive

*Q* Given COc1ccnc(NC(=S)N2CCN(c3ccccc3C(F)(F)F)CC2)c1 , state the outcome it received in this test.
*A* active

*Q* Given COc1ccc(S(=O)(=O)Nc2cccnc2Nc2ccc(O)cc2)cc1 , state the outcome it received in this test.
*A* active

*Q* Given CC(=O)Nc1ccc(Nc2nc3c(S(=O)(=O)c4cccc(Cl)c4)nnn3c3ccsc23)cc1 , state the outcome it received in this test.
*A* inactive

*Q* Given CC1=CC2=C(C)C(=O)C(C)(O)C(O)C2CO1 (configuration not stated) , state the outcome it received in this test.
*A* inactive

*Q* Given O=C(O)c1ccc(S(=O)(=O)N[C@H](Cc2ccccc2)C(=O)O)cc1 , state the outcome it received in this test.
*A* inactive

*Q* Given NC(=O)C1CCN(c2ncc(-c3cccc(N4CCCC4)c3)s2)CC1 , state the outcome it received in this test.
*A* active

*Q* Given CCC(O)C(C)C1CCC(C(C)C(=O)O)O1 (configuration not stated) , state the outcome it received in this test.
*A* inactive

*Q* Given COc1ccc(C2Nc3ccccc3C(=O)N2CC(C)(C)C)cc1COc1ccc(NC(C)=O)cc1 (configuration not stated) , state the outcome it received in this test.
*A* active

*Q* Given C=CC(=O)N1CC(N2CCN(C(=O)CNc3cc(C4CC4)c(Cl)cc3O)CC2)C1 , state the outcome it received in this test.
*A* active

*Q* Given COc1cccc(Nc2nc(C#N)nc(NC3CCCC3)n2)c1 , state the outcome it received in this test.
*A* inactive

*Q* Given CC(=O)OCC(=O)[C@@]1(O)[C@H](C)C[C@H]2[C@@H]3C=C(C)C4=Cc5c(cnn5-c5ccccc5)C[C@]4(C)[C@@H]3[C@@H](O)C[C@@]21C , state the outcome it received in this test.
*A* inactive

*Q* Given O=C(c1ccc(-c2cc(O)c3ncccc3c2)cc1)N1CCNCC1 , state the outcome it received in this test.
*A* inactive
